experiment: Effect of oral indican on the pharmacokinetics of oral MTX in rats; format: in vivo, rat; details: male, Sprague-Dawley, rat, serum, po, MRT, the mean residence time, oral MTX 5.0 mg/kg coadministered with indican 40.0 mg/kg, mean ± S.E., n = 5
property: MRT (h)
Only the number, expressed in h, is required.

Task: Please report the recorded MRT for CN(Cc1cnc2nc(N)nc(N)c2n1)c1ccc(C(=O)N[C@@H](CCC(=O)O)C(=O)O)cc1 [MTX, Methotrexate] .
Result: 16

---

experiment: Effect of intravenous IS on the elimination of intravenous PSP in rats; type: in vivo, rat; details: male, Sprague-Dawley, rat, serum, iv, 5 mg/kg, AUC0-1440, area under concentration-time curve to 1440 min, intravenous bolus of PSP 5.0 mg/kg alone, mean ± S.E., n = 6
property: AUC(0-t) (ng·h/mL)
Only the number, expressed in ng·h/mL, is required.

Task: Please report the recorded AUC(0-t) for O=S1(=O)OC(c2ccc(O)cc2)(c2ccc(O)cc2)c2ccccc21 [PSP, phenolsulfonphthalein] .
Result: 21300
